Overview of recorded log10 IC50 for various molecules
- TARGET_OF_ASSAY: p38 MAPKα isoform (MAPK14) (Homo sapiens, UniProt Q16539)
- Sequence (Q16539 whole entry, canonical isoform): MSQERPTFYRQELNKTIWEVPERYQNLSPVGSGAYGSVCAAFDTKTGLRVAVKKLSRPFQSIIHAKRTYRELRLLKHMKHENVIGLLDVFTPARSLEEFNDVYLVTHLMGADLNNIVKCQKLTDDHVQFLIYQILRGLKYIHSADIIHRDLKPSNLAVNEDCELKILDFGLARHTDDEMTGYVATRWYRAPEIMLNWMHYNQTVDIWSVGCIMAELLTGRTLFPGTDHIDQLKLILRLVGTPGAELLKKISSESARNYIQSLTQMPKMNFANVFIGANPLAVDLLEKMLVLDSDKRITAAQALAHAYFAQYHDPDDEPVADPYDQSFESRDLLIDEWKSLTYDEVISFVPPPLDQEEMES
- EXPERIMENT_NOTES: Enzyme inhibition assay (FRET, Z-LYTE), p38 MAPKα via MAPKAP-K2 activation
- ASSAY_SETUP: read-out: Enzyme Inhibition IC50 p38α
REPORTED_ENDPOINT: log10 IC50 (log10 of the value in nM)

CNC(=O)Nc1nccc(Oc2ccc(NC(=O)Nc3cc(C(C)(C)C)nn3-c3ccc(C)cc3)c(Cl)c2Cl)n1: 1.33
COCC(=O)Nc1cc(COc2ccc(NC(=O)Nc3cc(C(C)(C)C)nn3-c3ccc(OC)cc3)c(Cl)c2Cl)ccn1: 1.20
CNC(=O)Nc1cc(Oc2ccc(NC(=O)Nc3cc(C(C)(C)C)nn3-c3ccc(C(=O)OC)cc3)c(Cl)c2Cl)ccn1: 2.10
COc1ccc(-n2nc(C(C)(C)C)cc2NC(=O)Nc2ccc(Oc3ccnc(NC(=O)N(C)C)c3)c(Cl)c2Cl)cc1: 1.12
CNC(=O)Nc1cc(Oc2ccc(NC(=O)Nc3cc(C(C)(C)C)nn3-c3ccc(CO)c(OC)c3)c(Cl)c2Cl)ccn1: 1.67
COCC(=O)Nc1cc(Oc2ccc(NC(=O)Nc3cc(C(C)(C)C)nn3-c3ccc(C)cc3)c3c2CCCC3)ccn1: 1.27
COCC(=O)Nc1cc(Oc2ccc(NC(=O)Nc3cc(C(C)(C)C)nn3-c3ccc(OC)cc3)c(Cl)c2Cl)ncn1: 1.77
COc1ccc(-n2nc(C(C)(C)C)cc2NC(=O)Nc2ccc(Oc3cc(NC(=O)NCCN(C)C)ncn3)c(Cl)c2Cl)cc1: 0.72
COCC(=O)Nc1cc(Oc2ccc(NC(=O)Nc3cc(C(C)(C)C)nn3-c3ccc(O)cc3)c(Cl)c2Cl)ccn1: 1.74
COCC(=O)Nc1nccc(Oc2ccc(NC(=O)Nc3cc(C(C)(C)C)nn3-c3ccc(C)cc3)c(Cl)c2Cl)n1: 1.66
COCCNC(=O)Nc1cc(Oc2ccc(NC(=O)Nc3cc(C(C)(C)C)nn3-c3ccc(OC)cc3)c(Cl)c2Cl)ccn1: 1.45
Cc1ccc(-n2nc(C(C)(C)C)cc2NC(=O)Nc2ccc(Oc3ccnc(NC(=O)N4CCCC4)c3)c(Cl)c2Cl)cc1: 1.62
CSc1ccc(-n2nc(C(C)(C)C)cc2NC(=O)Nc2ccc(Oc3ccnc(NC(=O)N4CCCC4)c3)c(Cl)c2Cl)cc1: 1.56
CNCC(=O)Nc1cc(Oc2ccc(NC(=O)Nc3cc(C(C)(C)C)nn3-c3ccc(CO)cc3)c(Cl)c2Cl)ccn1: 0.88
